Listed compounds paired with reported logP
readout: logP

INSERT INTO results (compound, resultvalue) VALUES
  ('CCOC(=O)CN(C)C(=O)COC(=O)c1ccccc1OC(C)=O', 1.67),
  ('CCOC(=O)COC(=O)c1ccccc1OC(C)=O', 1.67),
  ('CC(=O)Oc1ccccc1C(=O)OCC(=O)N(C(C)C)C(C)C', 2.03),
  ('CC(=O)Oc1ccccc1C(=O)OCS(C)=O (configuration not stated)', 0.11),
  ('CCNC(=O)COC(=O)c1ccccc1OC(C)=O', 0.9),
  ('CC(=O)Nc1ccc(OC(=O)c2ccccc2OC(C)=O)cc1', 2.15),
  ('CSCOC(=O)c1ccccc1OC(C)=O', 1.94),
  ('CC(=O)Oc1ccccc1C(=O)Oc1ccccc1', 2.88),
  ('CC(=O)Oc1ccccc1C(=O)OCC(=O)N(C)CC(N)=O', -0.46),
  ('CC(=O)Oc1ccccc1C(=O)OCC(=O)N(C)C', 0.38),
  ('CC(=O)OCOC(=O)c1ccccc1OC(C)=O', 1.42),
  ('CC(=O)Oc1ccccc1C(=O)OCC(=O)NCC(N)=O', -0.43);
